# Tested on: Leishmania donovani
# Method Notes: Leishmania intramacrophage assay
# Assay type: functional, organism-based
# Parameters: scale not given: in the data most compounds retested in dose-response had high values
# Condition Details: 30 µM
Among all 69,000 compounds or so, about 1,000 (1.4%) showed an effect of 50% or more. The entries come from a sample that favours strong results as a whole.
Label scheme, based on Percent Effect: I = under 10%, II = from 10% up to 30%, III = 30% and over

Example cases with answers are listed next.
O=C(NCCCN1CCc2ccccc2C1)c1ccccc1Br : III
O=C(c1cc(Cl)ccc1F)N1CCCC1Cn1cccn1 (centres undefined) : I
CCc1nc(C2CCCN2CCC(=O)N2CCc3ccccc32)no1 (centres undefined) : I
Cc1cnn(C2CCCN(C(=O)c3cn4ccccc4n3)C2)c1 (centres undefined) : I
O=C(c1cc(Cl)c[nH]1)N1CCCC(c2cc(C(F)(F)F)[nH]n2)C1 (centres undefined) : III

// next entry
Input: # classify by Percent Effect band: c1ccc(-c2nnc(CN3CCOC(Cn4cccn4)C3)o2)cc1 (centres undefined)
Output: II

====

# Tested on: Leishmania donovani
# Method Notes: Leishmania intramacrophage assay
# Type: functional, organism-based
# Design: scale not given: in the data most compounds retested in dose-response had high values
# Condition Details: 30.3 µM; […]
Out of some 69,000 compounds screened, about 1,000 (1.4%) showed an effect of 50% or more. The sample holds strong results, similar compounds and a random draw of the others, so the mix is not that of the screen.
# key: entry, value: Percent Effect
Numeric answer only, unit % assumed.

These solved cases illustrate the format of a correct answer.
Cc1cc(C2CCC2)nc(NCC(C)(C)N2CCCC2)n1 : 9.291
CCN1CCN(C(C)(C)CNc2nc(C)cc(C3CCC3)n2)CC1 : 54.39
CN(C)CC1(O)CCN(C(=O)Cc2ccc(Cl)c(Cl)c2)C1 (stereo unspecified) : 1.329

Input: Which Percent Effect reading was recorded for the molecule O=S(=O)(c1ccccc1Br)N1CCC2(CC1)OCCS2 ?
Output: -12.48

Input: Returns the measured Percent Effect for the input molecule. Input: COc1ccc(-c2ccccc2CN)c(OC)c1
Output: 18.4

Input: What Percent Effect value was documented for this molecule, CN(CC(=O)N1CCCC1)C(=O)c1ccccc1Nc1ccccc1 ?
Output: -2.979

====

# Test system: Leishmania donovani
# Method Notes: Leishmania intramacrophage assay
# Format: functional, organism-based
# Set-up: scale not given: in the data most compounds retested in dose-response had high values
# Condition Details: 30.3 µM; […]
The whole screen tested about 69,000 compounds, of which about 1,000 (1.4%) showed an effect of 50% or more. Many of the other results were omitted from the sample, so strong results are more common in it than they were.
Categories are assigned from the measured Percent Effect using these intervals: low-valued (below 10%), mid-valued (10% to below 30%), high-valued (30% or more)

Cc1ccccc1N1CC2(CCN(Cc3nccn3C)C2)CC1=O.O=C(O)C(F)(F)F (centres undefined) : low-valued
COc1cc(Cl)cc(CN2CCCC(N3CCCC3)C2)c1OC (centres undefined) : mid-valued
O=C(NCC(F)F)c1ccc(S(=O)(=O)N2CCCC(O)C2)cc1 (centres undefined) : mid-valued
CCc1ccc(CN2CCN(c3cccc(OC)c3)C(=O)C2)nc1 : mid-valued
Cc1nn(C)cc1-c1cc(C(F)(F)F)nc(NC2CCN(C)CC2)n1 : low-valued
COCCN(Cc1cnn(C)c1)Cc1ccc(C)o1 : mid-valued
COC(=O)CCCN(C)C(c1cccnc1)c1ccc(F)cc1F (centres undefined) : mid-valued
CN1C(=O)CCCC12CCCN(Cc1cccs1)C2.O=C(O)C(F)(F)F (centres undefined) : mid-valued
CN(C)CCN1CCCC12CCN(Cc1nccn1C)CC2.O=C(O)C(F)(F)F.O=C(O)C(F)(F)F.O=C(O)C(F)(F)F : high-valued
COCCN(Cc1cnn(C)c1)CC1CCN(C(C)C)CC1 : high-valued

Input: Lab note: which band did O=C(CCn1cncn1)NCCOc1cccc(Cl)c1 land in?
Output: low-valued

Input: The entry to classify is Cn1cc(CN2CCCC23CCN(C(=O)c2ccccn2)CC3)cn1.O=C(O)C(F)(F)F ; which class holds it?
Output: low-valued

Input: // bin(item) where item = COc1cc(CNC(=O)c2csc(Br)c2)ccn1
Output: mid-valued

Input: Into which bin does this molecule go? OC1CCN(C2CCN(c3ccc(Cn4ccnc4)cn3)CC2)CC1
Output: high-valued

Input: Quick check: band for CN(C)C(=O)COC[C@]12COC[C@H]1CN(C1CCCC1)C2.O=C(O)C(F)(F)F
Output: high-valued

Input: Classify this molecule: CC1CCN(c2ccc(CNC(=O)NCCn3ccnc3)cn2)CC1
Output: low-valued

Input: Classify this molecule: Cc1ccc(F)c(OC2CCCN(c3cnn(C)c3)C2=O)c1 (centres undefined)
Output: low-valued

Input: Which bin should I file Cc1cc(NC(=O)NCc2cccnc2OC(C)C)no1 under?
Output: mid-valued

Input: Could you place O=C(c1c[nH]nn1)N1CCCC1C1CCCCC1 (centres undefined) in its proper category? Many thanks.
Output: high-valued

Input: State the band of COCCC(=O)N1CCN(CC(C)C)c2nc(C)ccc2C1.O=C(O)C(F)(F)F
Output: low-valued

Input: Would you mind sorting CNc1ncc2c(n1)CN(C1CC(C)(C)NC(C)(C)C1)C2=O into the appropriate category?
Output: high-valued

Input: Band assignment needed for Cc1noc(C2CCN(CC(=O)N3CCNC(=O)C3)CC2)n1 please.
Output: low-valued

Input: Class (by measured Percent Effect) for Cn1nc(C(=O)NCc2ccccc2C(F)(F)F)c2c1CCS(=O)(=O)C2
Output: high-valued

Input: Exam item: assign CC(=O)N1CCC(Cc2cnc(C(=O)N3CCCC3)cn2)C1 (centres undefined) to the correct category.
Output: low-valued

Input: Lab log: COc1ccc(S(=O)(=O)NCCCc2nnc3nc(C)cc(C)n23)cc1 — assign Percent Effect category
Output: low-valued

Input: Which of the defined bands does the recorded Percent Effect of COc1cc(Cl)c(CN2CCC(C(N)=O)C2)cc1Cl (centres undefined) sit within?
Output: high-valued

Input: Could you place CC(C(=O)N1CCN(CCOc2ccccc2)CC1)n1cncn1 (centres undefined) in its proper category? Many thanks.
Output: mid-valued

Input: Any idea which band COc1ccc(N2CCN(Cc3nc(CSC)no3)CC2=O)cc1 is in?
Output: high-valued

Input: Sort into band: c1cn(Cc2ccc(N3CCCN(C4CCCC4)CC3)nc2)cn1
Output: high-valued

Input: Class (by measured Percent Effect) for Cn1cc(CN2CCCC3(CCN(C(=O)c4ccccn4)C3)C2)cn1.O=C(O)C(F)(F)F.O=C(O)C(F)(F)F.O=C(O)C(F)(F)F (centres undefined)
Output: high-valued

Input: Form field 'band' for CN(CC1CCN(c2ccccc2)C1)c1ccc(Cn2ccnc2)cn1 (centres undefined)
Output: low-valued

Input: Sort COc1ccc(F)c(CNC2CCCc3nc(N(C)C)ncc32)c1 (centres undefined) into one of the categories.
Output: high-valued
